system-name: Flt1(h) (Homo sapiens, UniProt P17948)
Sequence (P17948 27-1338): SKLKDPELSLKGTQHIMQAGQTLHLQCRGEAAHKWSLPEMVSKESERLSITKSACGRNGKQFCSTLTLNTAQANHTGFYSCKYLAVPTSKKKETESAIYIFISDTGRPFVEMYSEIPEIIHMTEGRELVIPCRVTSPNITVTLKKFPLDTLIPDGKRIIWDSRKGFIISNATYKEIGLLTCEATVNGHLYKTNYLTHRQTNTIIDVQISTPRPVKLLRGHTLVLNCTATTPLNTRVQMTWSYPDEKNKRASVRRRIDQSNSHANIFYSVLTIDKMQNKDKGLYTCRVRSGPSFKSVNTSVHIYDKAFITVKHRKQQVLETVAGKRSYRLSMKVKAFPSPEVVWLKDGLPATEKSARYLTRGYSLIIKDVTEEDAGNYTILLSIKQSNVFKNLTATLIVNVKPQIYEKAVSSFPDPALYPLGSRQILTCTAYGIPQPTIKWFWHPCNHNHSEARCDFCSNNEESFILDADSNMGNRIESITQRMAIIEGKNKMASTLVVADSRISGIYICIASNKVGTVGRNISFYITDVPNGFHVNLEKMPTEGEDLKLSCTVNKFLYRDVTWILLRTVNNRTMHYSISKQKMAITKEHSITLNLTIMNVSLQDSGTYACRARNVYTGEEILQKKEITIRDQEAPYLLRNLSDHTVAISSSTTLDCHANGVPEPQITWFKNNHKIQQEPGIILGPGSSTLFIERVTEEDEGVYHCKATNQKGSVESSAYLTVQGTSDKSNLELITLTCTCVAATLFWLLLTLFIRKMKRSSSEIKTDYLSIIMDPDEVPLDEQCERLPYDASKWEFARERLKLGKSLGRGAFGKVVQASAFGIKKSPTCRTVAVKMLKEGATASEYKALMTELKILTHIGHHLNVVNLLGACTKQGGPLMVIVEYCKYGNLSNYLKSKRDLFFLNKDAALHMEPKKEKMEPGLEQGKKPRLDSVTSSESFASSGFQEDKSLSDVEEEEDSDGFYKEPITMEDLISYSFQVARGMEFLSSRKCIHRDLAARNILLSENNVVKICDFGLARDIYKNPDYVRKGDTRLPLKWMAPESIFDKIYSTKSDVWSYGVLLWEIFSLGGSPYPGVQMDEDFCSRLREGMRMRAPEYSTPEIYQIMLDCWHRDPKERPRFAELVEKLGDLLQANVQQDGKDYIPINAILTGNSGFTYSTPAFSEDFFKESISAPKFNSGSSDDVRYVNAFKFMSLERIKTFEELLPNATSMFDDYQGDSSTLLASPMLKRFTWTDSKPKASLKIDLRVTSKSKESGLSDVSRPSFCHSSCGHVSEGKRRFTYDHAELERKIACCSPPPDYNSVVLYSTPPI
measured-property: IC50 (nM)
Report only the number, with the unit nM understood.

Enquiry: Item under review: `CNC(=O)c1cccc2cc(Oc3ccnc4cc(OCC5(N)CC5)c(OC)cc34)ccc12` . Reported IC50?
Return: 4

====

system-name: Flt4(h) (Homo sapiens, UniProt P35916)
Sequence (P35916 25-1363): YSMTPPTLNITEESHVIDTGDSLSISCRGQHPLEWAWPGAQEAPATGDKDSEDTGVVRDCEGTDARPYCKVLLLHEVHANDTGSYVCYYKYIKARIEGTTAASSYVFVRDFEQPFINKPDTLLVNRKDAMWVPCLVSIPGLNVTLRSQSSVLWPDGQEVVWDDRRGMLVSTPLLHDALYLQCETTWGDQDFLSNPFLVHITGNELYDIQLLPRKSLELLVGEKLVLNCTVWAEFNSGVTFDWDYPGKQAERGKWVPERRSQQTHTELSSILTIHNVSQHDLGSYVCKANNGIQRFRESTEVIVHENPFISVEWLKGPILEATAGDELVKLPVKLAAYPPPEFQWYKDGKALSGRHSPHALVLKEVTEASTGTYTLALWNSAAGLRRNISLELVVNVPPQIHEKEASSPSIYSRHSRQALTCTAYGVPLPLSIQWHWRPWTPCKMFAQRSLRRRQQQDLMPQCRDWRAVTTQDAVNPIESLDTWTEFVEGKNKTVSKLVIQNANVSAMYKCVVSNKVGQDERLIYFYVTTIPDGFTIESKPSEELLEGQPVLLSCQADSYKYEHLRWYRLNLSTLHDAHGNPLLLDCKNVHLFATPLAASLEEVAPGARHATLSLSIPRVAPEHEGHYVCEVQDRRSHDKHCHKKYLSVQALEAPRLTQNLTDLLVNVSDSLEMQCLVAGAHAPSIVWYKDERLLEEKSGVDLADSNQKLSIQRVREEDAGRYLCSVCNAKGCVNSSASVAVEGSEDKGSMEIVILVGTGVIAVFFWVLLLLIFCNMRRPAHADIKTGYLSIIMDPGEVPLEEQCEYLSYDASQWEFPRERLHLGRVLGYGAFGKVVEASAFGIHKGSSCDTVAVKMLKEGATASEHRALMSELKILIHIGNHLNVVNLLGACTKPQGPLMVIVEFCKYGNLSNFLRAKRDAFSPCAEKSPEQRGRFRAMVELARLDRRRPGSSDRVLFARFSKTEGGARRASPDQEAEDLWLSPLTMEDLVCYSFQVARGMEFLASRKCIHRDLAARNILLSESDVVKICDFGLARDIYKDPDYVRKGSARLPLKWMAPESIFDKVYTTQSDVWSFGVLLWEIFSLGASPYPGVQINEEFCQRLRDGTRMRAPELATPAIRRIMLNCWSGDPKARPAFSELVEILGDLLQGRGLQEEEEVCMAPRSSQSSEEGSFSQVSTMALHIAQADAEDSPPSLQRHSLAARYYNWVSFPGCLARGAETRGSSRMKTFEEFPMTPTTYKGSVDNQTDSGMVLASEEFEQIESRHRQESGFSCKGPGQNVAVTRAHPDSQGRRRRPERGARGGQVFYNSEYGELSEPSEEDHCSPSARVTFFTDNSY
measured-property: IC50 (nM)
Report only the number, with the unit nM understood.

Enquiry: Item under review: `CNC(=O)c1cccc2cc(Oc3ccnc4cc(OCC5(N)CC5)c(OC)cc34)ccc12` . Reported IC50?
Return: 2

====

system-name: c-RAF(h) (Homo sapiens, UniProt P04049)
Sequence (P04049 whole entry): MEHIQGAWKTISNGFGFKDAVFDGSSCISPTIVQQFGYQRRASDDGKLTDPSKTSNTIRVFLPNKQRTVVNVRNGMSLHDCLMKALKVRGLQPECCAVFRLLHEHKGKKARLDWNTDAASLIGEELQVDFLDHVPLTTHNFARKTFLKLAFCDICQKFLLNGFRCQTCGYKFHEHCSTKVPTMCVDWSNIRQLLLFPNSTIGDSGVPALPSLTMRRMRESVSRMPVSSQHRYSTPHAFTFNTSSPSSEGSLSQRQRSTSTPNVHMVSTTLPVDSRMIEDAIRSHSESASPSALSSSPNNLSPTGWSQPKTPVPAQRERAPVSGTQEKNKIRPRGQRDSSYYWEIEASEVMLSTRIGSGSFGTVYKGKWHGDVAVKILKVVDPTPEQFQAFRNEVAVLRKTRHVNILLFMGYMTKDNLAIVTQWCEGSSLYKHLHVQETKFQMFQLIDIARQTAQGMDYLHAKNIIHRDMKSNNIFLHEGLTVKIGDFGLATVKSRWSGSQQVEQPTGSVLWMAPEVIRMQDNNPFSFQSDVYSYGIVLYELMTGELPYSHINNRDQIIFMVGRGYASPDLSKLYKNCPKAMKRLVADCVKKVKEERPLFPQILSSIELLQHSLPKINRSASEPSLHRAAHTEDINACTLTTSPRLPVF
measured-property: pIC50
Please keep in mind that pIC50 is minus log10 of the molar concentration; only the number is needed.

Enquiry: Item under review: `CNC(=O)c1cccc2cc(Oc3ccnc4cc(OCC5(N)CC5)c(OC)cc34)ccc12` . Reported pIC50?
Return: 6.53

====

system-name: UniProt:P10721
Sequence (P10721 26-976): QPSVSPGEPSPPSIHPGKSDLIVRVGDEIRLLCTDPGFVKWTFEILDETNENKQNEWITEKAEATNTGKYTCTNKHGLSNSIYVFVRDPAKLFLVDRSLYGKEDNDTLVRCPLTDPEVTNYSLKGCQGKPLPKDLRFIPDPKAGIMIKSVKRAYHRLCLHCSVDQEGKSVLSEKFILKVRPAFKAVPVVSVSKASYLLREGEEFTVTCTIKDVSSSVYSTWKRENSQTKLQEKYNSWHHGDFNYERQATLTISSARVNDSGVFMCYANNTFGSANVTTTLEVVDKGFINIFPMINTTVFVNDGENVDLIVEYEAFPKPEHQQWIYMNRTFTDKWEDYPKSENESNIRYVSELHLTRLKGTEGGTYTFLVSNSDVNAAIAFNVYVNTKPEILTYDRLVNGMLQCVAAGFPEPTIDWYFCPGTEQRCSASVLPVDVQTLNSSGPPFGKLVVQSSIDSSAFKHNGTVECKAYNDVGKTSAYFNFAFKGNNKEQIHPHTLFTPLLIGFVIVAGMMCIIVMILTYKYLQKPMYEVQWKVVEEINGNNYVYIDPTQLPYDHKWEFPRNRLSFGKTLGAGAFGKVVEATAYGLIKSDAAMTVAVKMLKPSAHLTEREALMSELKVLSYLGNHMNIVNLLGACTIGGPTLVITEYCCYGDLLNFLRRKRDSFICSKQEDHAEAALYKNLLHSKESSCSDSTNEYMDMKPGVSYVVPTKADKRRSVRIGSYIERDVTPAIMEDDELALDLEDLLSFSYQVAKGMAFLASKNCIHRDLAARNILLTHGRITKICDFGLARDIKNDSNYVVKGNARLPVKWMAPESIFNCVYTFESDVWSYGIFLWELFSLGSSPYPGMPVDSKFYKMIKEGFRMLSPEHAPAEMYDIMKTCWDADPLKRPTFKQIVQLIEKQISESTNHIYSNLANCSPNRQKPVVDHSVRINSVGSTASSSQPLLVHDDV
measured-property: IC50

Enquiry: Item under review: `CNC(=O)c1cccc2cc(Oc3ccnc4cc(OCC5(N)CC5)c(OC)cc34)ccc12` . Reported IC50?
Return: 234 nM
